# Tested on: SW-620
# Method Description: NCI tumour cell line growth inhibition, 48 h
Activity calls are given as the source filed them. Cut-off read from the data, not from the text of the source: active = GI50 up to about 1.1 µM and inactive = higher.
Recorded GI50 by entry

Examples from the recorded data:
CC(C)NC(=O)OCc1c(COC(=O)NC(C)C)c(-c2cc[n+](COC(=O)C(C)(C)C)cc2)n2c1CCC2    > 100 µM (inactive)
CC(NNC(=O)c1ccncc1)c1ccc(F)cc1 (stereo not given)    > 100 µM (inactive)
CCc1ccc(Cc2ccc(CC)c(NC(=O)C(=O)Cc3nc4ccccc4nc3C)c2CC)c(CC)c1NC(=O)C(=O)Cc1nc2ccccc2nc1C    > 100 µM (inactive)
O=P(Oc1ccc2ccccc2c1)(N1CC1)N1CC1    > 100 µM (inactive)
Cn1c2ccccc2c(=NNc2ccc(S(=O)(=O)N=C(N)N)cc2)c2ccccc21    7.55 µM (inactive)

Entry O=C(COC(=O)c1cccc2c(=O)c3ccccc3[nH]c12)Nc1ccc(C(=O)O)cc1 , GI50 reported as > 100 µM (inactive)

Entry CCCCC1Cc2cc(OC)ccc2-c2nc3cc(OC)ccc3n21.CCCCC1Cc2cc(OC)ccc2-c2nc3ccc(OC)cc3n21 (stereo not given) , GI50 reported as 14.5 µM (inactive)

Entry Cc1cc(S(=O)(=O)Nc2nc3ccccc3[nH]2)c(S)cc1Cl , GI50 reported as 37.6 µM (inactive)

Entry Cn1c(-c2ccccc2)cc(-c2ccsc2)c1-c1ccsc1 , GI50 reported as > 100 µM (inactive)

Entry O=[N+]([O-])C(=C1NCCN1)/C(Cl)=C(/Cl)N1CCOCC1 , GI50 reported as > 100 µM (inactive)
